tgt: PaNAS (Pseudomonas aeruginosa, UniProt Q9HUX4)
Sequence (Q9HUX4 whole entry): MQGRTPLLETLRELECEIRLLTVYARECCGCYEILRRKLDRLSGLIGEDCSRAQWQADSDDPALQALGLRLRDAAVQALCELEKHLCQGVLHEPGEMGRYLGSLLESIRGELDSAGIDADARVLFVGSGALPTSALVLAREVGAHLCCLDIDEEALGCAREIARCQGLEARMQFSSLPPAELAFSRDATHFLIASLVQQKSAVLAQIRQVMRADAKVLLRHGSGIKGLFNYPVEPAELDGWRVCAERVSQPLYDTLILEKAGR
assay.method.text: biochemical
pKd: −log10 of the molar value.
endpoint: pKd

- C[S+](CC[C@H](N)C(=O)O)C[C@H]1O[C@@H](n2cnc3c(N)ncnc32)[C@H](O)[C@@H]1O (stereo partly shown) [SAM]: 5.92

----------
tgt: PaODH (Pseudomonas aeruginosa, UniProt Q9HUX5)
Sequence (Q9HUX5 whole entry): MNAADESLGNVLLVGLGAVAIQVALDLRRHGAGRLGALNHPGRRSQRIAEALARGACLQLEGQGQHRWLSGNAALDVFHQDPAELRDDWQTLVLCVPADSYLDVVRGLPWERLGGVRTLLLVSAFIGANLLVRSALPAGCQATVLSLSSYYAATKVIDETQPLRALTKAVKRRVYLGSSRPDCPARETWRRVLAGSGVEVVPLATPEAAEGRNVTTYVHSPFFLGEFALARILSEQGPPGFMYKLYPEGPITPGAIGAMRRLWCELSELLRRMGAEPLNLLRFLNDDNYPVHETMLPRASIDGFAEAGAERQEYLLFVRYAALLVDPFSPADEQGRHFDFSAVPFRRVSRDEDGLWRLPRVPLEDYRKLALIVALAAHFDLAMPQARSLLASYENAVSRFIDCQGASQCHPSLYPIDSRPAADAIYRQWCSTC
assay.method.text: NADPH fluorescence, titrated with enzyme
pKd: −log10 of the molar value.
endpoint: pKd

* NC(=O)C1=CN([C@@H]2O[C@H](COP(=O)(O)OP(=O)(O)OC[C@H]3O[C@@H](n4cnc5c(N)ncnc54)[C@H](OP(=O)(O)O)[C@@H]3O)[C@@H](O)[C@H]2O)C=CC1 [NADPH] | 4.96
